- Tested on: 186277-243-T-J2-PDC complex spheroid growth;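 further: luminescent signal used as a stand-in for viable cell amount; spheroids exposed to compounds for seven days before the viability read; 100% = DMSO vehicle control wells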
- Test method notes: Anticancer human tumor 186277-243-T-J2-PDC patient-derived colon adenocarcinoma cell line growth inhibition [AhR]
- Test settings: second compound 0.316 µM; first compound 0.0316 µM; hits give low values
// reported viability, T/C for each item listed
Only the number, expressed in %, is required.

INSERT INTO measurements (compound, unit_abbrev, obs_value) VALUES
  ('Nc1ccn(C2OC(CO)C(O)C2(F)F)c(=O)n1 (stereo unspecified) + CC(CO)NC(=O)c1cc(-c2ccc(Cl)cc2)nn(-c2cnn(C)c2)c1=O', '%', 4.41),
  ('Nc1ncn(C2CC(O)C(CO)O2)c(=O)n1 (stereo unspecified) + Cc1cncc(-c2nc(NCCc3c[nH]c4ccccc34)c3ncn(C(C)C)c3n2)c1', '%', 107),
  ('O=C(C=Cc1cccc(S(=O)(=O)Nc2ccccc2)c1)NO + Cc1ccccc1N=Nc1ccc(NC(=O)c2ccnn2C)c(C)c1', '%', 96.7),
  ('CC(C)c1c(-c2ccccc2)nc2c(C#N)c[nH]n2c1=O + Cc1cncc(-c2nc(NCCc3c[nH]c4ccccc34)c3ncn(C(C)C)c3n2)c1', '%', 102),
  ('CC1COCCN1c1cc(-c2ccnn2C)c2ccnc(-c3ccn[nH]3)c2n1 (stereo unspecified) + Cc1cncc(-c2nc(NCCc3c[nH]c4ccccc34)c3ncn(C(C)C)c3n2)c1', '%', 122);

We next turn to a different compound, shown below.
Task: Entry CC1COCCN1c1cc(C2(S(C)(=N)=O)CC2)nc(-c2ccnc3[nH]ccc23)n1 (stereo unspecified) + CC(CO)NC(=O)c1cc(-c2ccc(Cl)cc2)nn(-c2cnn(C)c2)c1=O has what viability, T/C?
Output: 97.9
